B1: PHD2 and PHD3 fingers of human MLL4 (aa 227-324) [human] / ASXL2 peptide (residues 650-670 of ASXL2) [human] (parent complex)
chain 1: ARCAVCEGPGELCDLFFCTSCGHHYHGACLDTALTARKRAGWQCPECKVCQACRKPGNDSKMLVCETCDKGYHTFCLKPPMEELPAHSWKCKACRVCR
chain 2: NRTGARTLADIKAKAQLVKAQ

variants of: B1; assay: fluorescence spectroscopy
measured property: Kd (µM)
Numbers only here, please. The scale is µM.

Lookup result for chain 2 R6I ; measured Kd: 11

Source of measurements: paper PMC11161652
